Sourced from ChEMBL document CHEMBL4513216

# experiment: Toxicity liver stage against HepG2, at 10uM
# Type: cell-based
# Set-up: test concentration 10 uM, cell line HepG2-A16-CD81EGFP
# reported_conditions: human, HepG2-A16-CD81EGFP cells; read-out: INHIBITION
measure: cytotoxicity at 10 µM (%)
One number for each entry, in %.

Some solved entries appear below for comparison.
CO[C@H]1CCN(C2CCC2)[C@@H]2CN(Cc3ccncc3)C[C@H]12 | 8.13
CCOCC(=O)N1CCC(CSCc2ccco2)CC1 | -7.36
CC(C)CCNC(=O)CNC(=O)N1CCc2c([nH]c3ccc(Cl)cc23)C1 | 6.73
NC(=O)NC(CC(=O)NCCc1ccc(F)cc1)c1ccccc1 (centres undefined) | -2.39
CC(C)COCCC(=O)Nc1c(-c2ccc(F)cc2)ncn1C | -1.18
Cc1ccc(CNC(=O)CCC(=O)NCCC(C)C)o1 | -9.74

I would be grateful if you could provide cytotoxicity at 10 µM for each of the following entries.
1. O=S(=O)(c1cccs1)N1Cc2nc(CN3CCCCC3)oc2C1
2. Cc1noc(-c2cccnc2N(C)Cc2cscn2)n1
3. CCc1nc(CN2CCN(C(=O)C3CCCCC3)CC2)cs1
4. Cc1cccc(C(=O)N2C[C@@H]3C(CC(=O)N4CCCC4)[C@@H]3C2)n1 (some centres undefined)
5. CCN(CC)S(=O)(=O)CCNc1ncnc2cc(F)c(F)cc12
6. COC(=O)NCC(=O)NC(c1ccc(Cl)cc1)C(F)(F)F (centres undefined)
7. OC(COCc1ccccc1)CSc1nnc2ccccn12 (centres undefined)
8. COCCOCC(=O)NCCCOC1CCCc2ccccc21 (centres undefined)

1: -121; 2: -4.23; 3: 3.64; 4: 1.82; 5: 25.9; 6: 9.09; 7: 2.95; 8: 4.15

I would be grateful if you could provide cytotoxicity at 10 µM for each of the following entries.
1. C=C(C)CN(CC)S(=O)(=O)c1cccc(F)c1C#N
2. COCCn1cnc(-c2cc(C(=O)NC(C)C)c3ccccn23)c1
3. CCc1nccn1-c1cncc(C2CCCN2CC(=O)N2CCCC2)n1 (centres undefined)

1: -6.03; 2: -1.03; 3: 0.193

I would be grateful if you could provide cytotoxicity at 10 µM for each of the following entries.
1. CCn1nc(C)c(C(=O)N2CCC(Nc3ccc(C)nn3)CC2)c1C
2. Cn1c(NCC(O)c2ccc(F)cc2)c(C#N)c(=O)n(C)c1=O (centres undefined)
3. OC1(CNc2ccc(Br)cn2)CCOCC1
4. CCNC(=O)N1CCN(C(=O)c2cc(Cl)cc3cccnc23)CC1
5. CC(=O)c1ccc(NC(=O)C(NC(=O)Nc2ccccc2)C(C)C)cc1 (centres undefined)
6. CN1CCCN(c2ncnc(N3CCOCC3)c2N)CC1

4.13
-7.57
6.91
-9.62
-0.719
1.08

Would you kindly share the measured cytotoxicity at 10 µM for Cc1ccc2nc(CN3CCCCC3CCN3CCOCC3)cn2c1 (centres undefined) ? 3.28
